meta.source: patent US20090143279A1

Field: MTT. Provide a value for each of the compounds that follow.
System: cellular dehydrogenase activity
Details: composite Z-score vs mock-treated (DMSO) wells; Conc 20 μM

Consider the compound `CC1(C)CC[C@]2(C(=O)O)CC[C@]3(C)C(=CC[C@@H]4[C@@]5(C)CC[C@H](O)C(C)(C)[C@@H]5CC[C@]43C)[C@@H]2C1` and give its measured MTT.
−0.720

Look up MTT: COc1ccc([C@@H](C)C(=O)c2ccc(O)cc2O)cc1 [(R)-angolensin]
−0.743

Could you share which MTT value was measured for CC(=O)O[C@@H]1CC[C@@]2(C)C(C[C@@H](OC(C)=O)[C@@]3(C)C4=CC(=O)O[C@@H](c5ccoc5)[C@]4(C)CCC23)C1(C)C (stereo partly drawn) [3alpha-acetoxydihydrodeoxygedunin] ?
−1.653

# input compound: CC(=O)O[C@@H]1CC2C(C)(C)[C@H](O)C=C[C@]2(C)C2CC[C@@]3(C)[C@H](c4ccoc4)OC(=O)C4OC43[C@@]21C (stereo partly drawn) ; wanted: its MTT
−1.248

// returns reported MTT for input `COc1cc(-c2coc3cc(OCc4ccccc4)c(OC)c(O)c3c2=O)cc(O)c1OC`
−1.179

Recorded MTT for `COc1ccc2c(c1OC)OC[C@@H](c1ccc(OC)c(OC)c1OC)C2` , please?
−0.975

----------
I'd be grateful if you could share measured MTT for these entries.
Test system: cellular dehydrogenase activity
Conditions: 20 μM; composite Z-score vs DMSO
Please reply with the value in numeric form only.

Record request: MTT value, item CC1(C)S[C@@H]2[C@H](NC(=O)C(C(=O)O)c3ccccc3)C(=O)N2[C@H]1C(=O)O (stereo partly drawn)
−0.565

// query MTT value for entry Nc1ccc(C(=O)[O-])cc1.[K+] [potassium p-aminobenzoate]
−1.445

Which MTT is reported for this compound? `Oc1ncnc2[nH]ncc12`
−1.611

What does the record list as MTT for `Cc1cc(O)ccc1Cl` ?
−0.607

Item under review: `[H]/N=C(\N/C(=N/[H])NCCCCCCNC(=N)NC(=N)Nc1ccc(Cl)cc1)Nc1ccc(Cl)cc1` . Reported MTT?
−2.340

I am curious: what MTT value has been reported for `CC(=O)OCC(COC(C)=O)OC(C)=O` ?
−0.717

Value lookup for MTT; key = `CCCC(C(=O)OCCN(CC)CC)(c1ccccc1)c1ccccc1`
−1.808

Form field: reported MTT of `CCOC(=O)[C@H](CCc1ccccc1)N[C@@H](C)C(=O)N1Cc2ccccc2C[C@H]1C(=O)O`
−1.111

Any idea what its MTT is? The compound is O=C(Nc1ccc([N+](=O)[O-])cc1Cl)c1cc(Cl)ccc1O [niclosamide]
−0.296

----------
Tested on: cytochrome c
Type: cell-based, mouse
Conditions: composite Z-score vs DMSO; Conc 20 μM
Consider the following molecules; for each one, report its cyt c.

What does the data say about its cyt c? Entry: OC[C@H]1O[C@@H](n2cnc3c(NCc4ccco4)ncnc32)[C@H](O)[C@@H]1O [kinetin riboside]
−2.612

cyt c for `COc1ccc2c(=O)ccoc2c1` ?
0.511

Fill in: cyt c of `C[C@@]12C(=O)OC(=O)[C@]1(C)[C@H]1CC[C@@H]2O1` is ___
−5.284

cyt c for `COC(=O)c1c(C)c2c(c(C)c1O)OC(=O)c1c(C)c(Cl)c(O)c(Cl)c1O2` ?
0.341

Requested read-out: cyt c. Entry: `COC1=C[C@@H]2[C@@H]3Cc4ccc(OC)c(O)c4[C@]2(CCN3C)CC1=O`
−0.117

What does the record list as cyt c for `COc1ccc2cc([C@H](C)CO)ccc2c1` ?
0.993

GET /values?readout=cyt c&item= `CCN1CCN(C(=O)N[C@@H](C(=O)N[C@@H]2C(=O)N3[C@@H]2SC(C)(C)[C@@H]3C(=O)O)c2ccccc2)C(=O)C1=O`
0.544

Entry O=C(O)CF [sodium fluoroacetate] has what cyt c?
0.653

Report cyt c for COC(=O)C[C@H]1C2(C)CC34OC5(C)O[C@@]6([C@H](OC(C)=O)C(OC(C)=O)[C@]7(C)C(/C(=C(/O)C(C)C)C(=O)O[C@H]7c7ccoc7)[C@@]6(O5)[C@H](OC(C)=O)[C@@]3(O)C2OC(=O)C(C)C)[C@]14C (stereo partly drawn) please.
0.622
